compounds and their reported pEC50
- STUDY_SYSTEM: Glutathione S-transferase class-mu 26 kDa isozyme (Schistosoma japonicum)
- ASSAY_TEXT: GST–glutathione bead interaction interference profiling – biochemical, multiplex beads, flow cytometry, profiling panel (AID 1769)
pEC50: −log10 of the molar value.
READOUT_KIND: pEC50

INSERT INTO assay_data (compound, result_value) VALUES
  ('CCOc1ccc2c(c1)C(=NN=C(N)N)C(=O)N2C', 4.59),
  ('NC(=S)NNC1=c2cc(Br)cc(Br)c2=NC1=O', 4.16),
  ('Cc1cc(N=NCc2ccc(O)cc2O)nc(-n2nc(C)cc2C)n1', 6.08),
  ('CC(N=Nc1ccc(S(N)(=O)=O)cc1[N+](=O)[O-])c1ccc2c(c1)OCO2 (configuration not stated)', 5.85),
  ('CCn1cc(C(=O)O)c(=O)c2cc(F)c(N=NCc3ccccc3[N+](=O)[O-])cc21', 5.57),
  ('CCNC(=S)NN=C1C(=O)Nc2ccc([N+](=O)[O-])cc21', 5.71),
  ('Oc1ccc2ccccc2c1CN=Nc1nnc(-c2ncc[nH]2)c2ccccc12', 5.71);

---

- STUDY_SYSTEM: Glutathione S-transferase class-mu 26 kDa isozyme (Schistosoma japonicum, UniProt P08515)
- Sequence (P08515 2-218 limits assumed): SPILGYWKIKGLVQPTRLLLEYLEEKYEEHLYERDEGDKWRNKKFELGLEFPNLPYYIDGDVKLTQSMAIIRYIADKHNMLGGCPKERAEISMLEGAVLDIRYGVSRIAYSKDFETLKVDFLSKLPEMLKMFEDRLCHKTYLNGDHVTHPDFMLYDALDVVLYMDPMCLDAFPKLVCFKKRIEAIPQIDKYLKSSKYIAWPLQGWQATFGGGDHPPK
- ASSAY_TEXT: GST–glutathione bead interaction interference profiling – biochemical, multiplex beads, flow cytometry, profiling panel (AID 1769)
pEC50: −log10 of the molar value.
READOUT_KIND: pEC50

INSERT INTO measurements (entry_smiles, readout_kind, result_value) VALUES
  ('CCn1cc(C(=O)O)c(=O)c2cc(F)c(N=NCc3ccccc3)cc21', 'pEC50', 5.41),
  ('CCOC1=CC(=Cc2sc(=O)[nH]c2N)C=CC1=O', 'pEC50', 5.61),
  ('NC(=S)NNC1=c2cc(F)c(F)cc2=NC1=O', 'pEC50', 4.81),
  ('COc1cc(CN=Nc2ncnc3sc4c(c23)CCC4)ccc1O', 'pEC50', 4.84),
  ('CCN(c1ccc(NC=C2C(=O)N(Cc3ccc(OC)cc3)C(=O)c3ccccc32)cc1)C(C)C', 'pEC50', 6.60);

---

- STUDY_SYSTEM: UniProt P08515
- ASSAY_TEXT: GST–glutathione bead interaction interference profiling – biochemical, multiplex beads, flow cytometry, profiling panel (AID 1769)
READOUT_KIND: EC50 (µM)

INSERT INTO results (entry_smiles, readout_kind, result_value) VALUES
  ('COc1cc(CN=Nc2nc(C)nc3c2cnn3-c2ccccc2)ccc1O', 'EC50', 0.638),
  ('COc1ccc(-c2csc(-c3c(O)cn(C(C)C)c3N)n2)cc1OC', 'EC50', 87.3),
  ('O=c1[nH]c(N=NCc2ccc(O)cc2)nc2ccccc12', 'EC50', 7.68),
  ('COC(=O)c1cc(NC(=O)c2cccc(Cl)c2)c(=O)oc1CC=Nc1cc(C)cc(C)c1', 'EC50', 0.567),
  ('O=c1[nH]c(=O)c2nnc(N=NCc3ccc(O)cc3)nc2[nH]1', 'EC50', 3.79),
  ('COc1ccc(N=CCc2nc(SC)nnc2C)cc1', 'EC50', 2.76);

---

- STUDY_SYSTEM: UniProt P08515
- ASSAY_TEXT: GST–glutathione bead interaction interference profiling – biochemical, multiplex beads, flow cytometry, profiling panel (AID 1769)
pEC50: −log10 of the molar value.
READOUT_KIND: pEC50

INSERT INTO measurements (molecule, result_value) VALUES
  ('Cc1ccc(O)c(/N=C/C2=CC(Cc3ccccc3)C=C([N+](=O)[O-])C2=O)c1 (stereo not given)', 5.08),
  ('CC(C)NC(=S)NN=C1C(=O)Nc2ccc([N+](=O)[O-])cc21', 5.84),
  ('O=C(Cc1ccccc1)NCC(=O)N/N=C1\C(=O)N(Cc2ccc3c(c2)OCO3)c2ccccc21', 4.92),
  ('CN1C(=O)/C(=C2/C(=O)Nc3ccccc32)NC1=S', 4.87),
  ('Cc1nc(N=NCc2ccc(O)cc2)c2cnn(-c3ccccc3)c2n1', 5.45);
